Where do these numbers come from? They come from patent US20210284638A1.

measurement target: Recombinant human integrin αVβ6 (Homo sapiens, UniProt P06756+P18564)
Sequence (P18564 22-707 limits assumed, one chain of several): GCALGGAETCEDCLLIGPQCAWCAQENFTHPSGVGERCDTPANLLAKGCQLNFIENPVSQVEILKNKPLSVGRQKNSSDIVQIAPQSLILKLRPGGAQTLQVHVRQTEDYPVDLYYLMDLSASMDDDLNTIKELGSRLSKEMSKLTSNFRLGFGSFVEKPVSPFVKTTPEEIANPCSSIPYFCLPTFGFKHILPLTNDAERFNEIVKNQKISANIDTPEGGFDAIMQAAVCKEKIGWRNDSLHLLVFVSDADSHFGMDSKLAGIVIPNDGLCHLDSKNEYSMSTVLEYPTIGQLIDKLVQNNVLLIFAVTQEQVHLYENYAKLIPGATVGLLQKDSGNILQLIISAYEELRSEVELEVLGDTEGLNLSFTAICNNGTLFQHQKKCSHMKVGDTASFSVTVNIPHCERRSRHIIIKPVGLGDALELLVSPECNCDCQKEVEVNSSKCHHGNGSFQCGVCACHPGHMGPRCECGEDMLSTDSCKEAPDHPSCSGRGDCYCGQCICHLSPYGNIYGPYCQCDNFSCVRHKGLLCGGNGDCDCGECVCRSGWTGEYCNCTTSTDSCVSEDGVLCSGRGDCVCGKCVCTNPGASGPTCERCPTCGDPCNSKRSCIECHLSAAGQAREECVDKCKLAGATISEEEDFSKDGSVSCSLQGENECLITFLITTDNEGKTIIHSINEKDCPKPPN
protocol: Solid Phase Receptor Assay (SPRA) for αVβ6 function
applied conditions: plate-bound human LAP
# maps each entry to its log10 of IC50
Remember, log10 of IC50, in nM.

> print(dat)
                                   compound     observable  observed.value
1  COc1c(C(C)(C)C)cc(C(CC(=O)O)Cc2csc(CCCc3ccc4c(n3)NCCC4)n2)cc1C(C)(C)C (stereo not shown)  log10 of IC50            2.65
2  COCC1(c2ccc(OC)c(C(CC(=O)O)Cc3cc(OCCc4ccc5c(n4)NCCC5)n(C)n3)c2)CCOCC1 (stereo not shown)  log10 of IC50            3.61
3  COc1ccc(C2=CCOCC2)cc1C(CC(=O)O)Cc1cc(OCCc2ccc3c(n2)NCCC3)n(C)n1 (stereo not shown)  log10 of IC50            1.23
4  COc1c(C(C)C)cc(C(CC(=O)O)Cc2cc(OCCc3ccc4c(n3)NCCC4)n(C)n2)cc1C(C)C (stereo not shown)  log10 of IC50            2.20
5  COc1ccc(C2CCOCC2)cc1C(CC(=O)O)Cc1csc(CCCc2ccc3c(n2)NCCC3)n1 (stereo not shown)  log10 of IC50            1.98
6  Cn1nc(CC(CC(=O)O)c2cc(Br)cc(S(F)(F)(F)(F)F)c2)cc1OCCc1ccc2c(n1)NCCC2 (stereo not shown)  log10 of IC50            1.73

Could you now look at the following compound, please?
Which log10 of IC50 value belongs to COc1ccc(S(F)(F)(F)(F)F)cc1C(CC(=O)O)Cc1cc(OCCc2ccc3c(n2)NCCC3)n(C)n1 (stereo not shown) ? 1.68

###

measurement target: Recombinant human integrin α5β1 (Homo sapiens, UniProt P05556+P08648)
Sequence (P08648 42-995 limits assumed): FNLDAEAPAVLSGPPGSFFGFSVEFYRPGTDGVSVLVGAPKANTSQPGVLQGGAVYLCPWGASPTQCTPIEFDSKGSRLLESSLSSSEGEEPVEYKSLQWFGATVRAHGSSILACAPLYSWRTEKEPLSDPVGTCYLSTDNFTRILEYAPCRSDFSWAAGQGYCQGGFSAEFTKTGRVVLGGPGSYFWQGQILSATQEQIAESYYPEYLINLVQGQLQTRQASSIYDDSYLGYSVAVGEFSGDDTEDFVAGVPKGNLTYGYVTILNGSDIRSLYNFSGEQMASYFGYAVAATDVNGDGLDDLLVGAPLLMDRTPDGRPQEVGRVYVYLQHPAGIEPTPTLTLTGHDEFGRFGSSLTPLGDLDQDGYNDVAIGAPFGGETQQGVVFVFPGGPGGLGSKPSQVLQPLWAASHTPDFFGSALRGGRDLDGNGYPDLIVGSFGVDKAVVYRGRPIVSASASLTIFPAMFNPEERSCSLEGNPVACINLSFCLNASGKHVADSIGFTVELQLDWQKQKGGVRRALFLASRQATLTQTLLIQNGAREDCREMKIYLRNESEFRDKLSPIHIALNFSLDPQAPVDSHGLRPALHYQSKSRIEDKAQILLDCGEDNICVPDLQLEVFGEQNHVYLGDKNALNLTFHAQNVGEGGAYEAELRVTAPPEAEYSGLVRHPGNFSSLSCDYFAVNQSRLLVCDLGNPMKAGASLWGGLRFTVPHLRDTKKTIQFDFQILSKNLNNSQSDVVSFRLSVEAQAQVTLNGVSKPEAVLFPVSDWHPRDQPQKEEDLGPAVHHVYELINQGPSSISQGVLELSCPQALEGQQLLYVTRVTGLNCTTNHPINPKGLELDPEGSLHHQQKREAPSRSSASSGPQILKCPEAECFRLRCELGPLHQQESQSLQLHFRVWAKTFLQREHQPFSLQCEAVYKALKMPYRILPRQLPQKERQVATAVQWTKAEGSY
Sequence (P05556 21-728 limits assumed): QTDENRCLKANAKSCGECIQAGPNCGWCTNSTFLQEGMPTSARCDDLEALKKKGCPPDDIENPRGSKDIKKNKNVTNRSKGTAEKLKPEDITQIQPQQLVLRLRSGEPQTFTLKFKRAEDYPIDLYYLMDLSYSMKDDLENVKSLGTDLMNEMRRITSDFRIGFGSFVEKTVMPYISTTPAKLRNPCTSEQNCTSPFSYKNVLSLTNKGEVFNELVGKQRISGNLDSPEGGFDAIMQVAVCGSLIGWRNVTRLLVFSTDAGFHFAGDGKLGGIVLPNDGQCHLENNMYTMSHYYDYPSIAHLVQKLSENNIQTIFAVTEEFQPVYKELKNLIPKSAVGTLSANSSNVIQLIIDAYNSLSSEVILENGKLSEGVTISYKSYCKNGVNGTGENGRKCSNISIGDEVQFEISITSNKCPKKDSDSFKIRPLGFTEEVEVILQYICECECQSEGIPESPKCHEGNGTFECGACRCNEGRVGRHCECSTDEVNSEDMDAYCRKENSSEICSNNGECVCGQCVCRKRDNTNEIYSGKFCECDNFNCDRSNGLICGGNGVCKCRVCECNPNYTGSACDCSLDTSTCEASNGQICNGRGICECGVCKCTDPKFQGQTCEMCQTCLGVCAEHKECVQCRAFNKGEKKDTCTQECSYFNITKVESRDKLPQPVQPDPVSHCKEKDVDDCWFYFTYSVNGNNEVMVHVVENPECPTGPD
protocol: Solid Phase Receptor Assay (SPRA) for α5β1 function
applied conditions: plate-bound human fibronectin
pIC50: −log10 of the molar value. Counter-ions that a name gives are not always drawn.
Lab note: compare pIC50 against 8. Equal or greater, write MET. Smaller, write NOT MET.

For orientation, consider the following solved cases.
molecule	group
CC(C)(C)c1cc(C(CC(=O)O)Cc2csc(CCCc3ccc4c(n3)NCCC4)n2)cc(C2(C(F)F)CC2)c1 (centres unmarked) [Example 30]	NOT MET
COCC1(c2cc(C(CC(=O)O)Cc3cc(OCCc4ccc5c(n4)NCCC5)n(C)n3)cc(C(C)(C)C)c2)CCOCC1 (centres unmarked) [Example 1]	MET
COc1ccc(C2=CCOCC2)cc1C(CC(=O)O)Cc1csc(CCCc2ccc3c(n2)NCCC3)n1 (centres unmarked) [Example 37]	NOT MET
CC(C)(C)c1ccc(C#N)c(C(CC(=O)O)Cc2csc(CCCc3ccc4c(n3)NCCC4)n2)c1 (centres unmarked) [Example 33]	MET
CC(C)(C)c1cc(C(CC(=O)O)Cc2csc(CCCc3ccc4c(n3)NCCC4)n2)cc(C(C)(C)C)c1 (centres unmarked) [Example 27]	NOT MET

Reported pIC50 reaches at least 8 for Cn1nc(CC(CC(=O)O)c2cc(C(C)(C)C#N)cc(C(C)(C)C#N)c2)cc1OCCc1ccc2c(n1)NCCC2 (centres unmarked) [Example 41, trifluoroacetate] ? MET

Reported pIC50 reaches at least 8 for Cn1nc(CC(CC(=O)O)c2cc(C(C)(C)C)ccc2Br)cc1OCCc1ccc2c(n1)NCCC2 (centres unmarked) [Example 17] ? NOT MET

Reported pIC50 reaches at least 8 for COc1cc(C(CC(=O)O)Cc2cc(OCCc3ccc4c(n3)NCCC4)n(C)n2)cc(C23CC4CC(CC(C4)C2)C3)c1OCc1ccccc1 (centres unmarked) [Example 13] ? NOT MET

Reported pIC50 reaches at least 8 for COc1ccc(C(C)(C)C)cc1C(CC(=O)O)Cc1csc(CCCc2ccc3c(n2)NCCC3)n1 (centres unmarked) [Example 28] ? NOT MET

Reported pIC50 reaches at least 8 for COc1c(C(C)(C)C)cc(C(CC(=O)O)Cc2csc(CCCc3ccc4c(n3)NCCC4)n2)cc1C(C)(C)C (centres unmarked) [Example 29] ? NOT MET

Reported pIC50 reaches at least 8 for COc1ccc(C2(C(F)F)CC2)cc1C(CC(=O)O)Cc1cc(OCCc2ccc3c(n2)NCCC3)n(C)n1 (centres unmarked) [Example 21] ? NOT MET

Reported pIC50 reaches at least 8 for Cn1nc(CC(CC(=O)O)c2cc(C(C)(C)C)cc(C(C)(C)CO)c2)cc1OCCc1ccc2c(n1)NCCC2 (centres unmarked) [Example 7] ? MET

Reported pIC50 reaches at least 8 for CC(C)(C)c1ccc(Br)c(C(CC(=O)O)Cc2csc(CCCc3ccc4c(n3)NCCC4)n2)c1 (centres unmarked) [Example 34] ? NOT MET

Reported pIC50 reaches at least 8 for COc1ccc(C2COC2)cc1C(CC(=O)O)Cc1cc(OCCc2ccc3c(n2)NCCC3)n(C)n1 (centres unmarked) [Example 23] ? NOT MET

Reported pIC50 reaches at least 8 for Cn1nc(CC(CC(=O)O)c2cc3c(c(C(C)(C)C)c2)OCCO3)cc1OCCc1ccc2c(n1)NCCC2 (centres unmarked) [Example 16] ? NOT MET

Reported pIC50 reaches at least 8 for COc1c(C(CC(=O)O)Cc2cc(OCCc3ccc4c(n3)NCCC4)n(C)n2)cc(C(C)(C)C)cc1C(C)(C)C (centres unmarked) [Example 11] ? NOT MET

Reported pIC50 reaches at least 8 for COc1ccc(C(CC(=O)O)Cc2cc(OCCc3ccc4c(n3)NCCC4)n(C)n2)cc1F (centres unmarked) [Example 44] ? NOT MET

Reported pIC50 reaches at least 8 for Cn1nc(CC(CC(=O)O)c2cc(C(C)(C)C)cc(C(C)(C)C#N)c2)cc1OCCc1ccc2c(n1)NCCC2 (centres unmarked) [Example 9] ? MET

Reported pIC50 reaches at least 8 for COc1c(C(C)C)cc(C(CC(=O)O)Cc2csc(CCCc3ccc4c(n3)NCCC4)n2)cc1C(C)C (centres unmarked) [Example 26] ? NOT MET

Reported pIC50 reaches at least 8 for COCC1(c2cc(C(CC(=O)O)Cc3csc(CCCc4ccc5c(n4)NCCC5)n3)cc(C(C)(C)C)c2)CCOCC1 (centres unmarked) [Example 32] ? NOT MET

###

measurement target: Recombinant human integrin αvβ1 (Homo sapiens, UniProt P05556+P06756)
Sequence (P06756 31-992 limits assumed): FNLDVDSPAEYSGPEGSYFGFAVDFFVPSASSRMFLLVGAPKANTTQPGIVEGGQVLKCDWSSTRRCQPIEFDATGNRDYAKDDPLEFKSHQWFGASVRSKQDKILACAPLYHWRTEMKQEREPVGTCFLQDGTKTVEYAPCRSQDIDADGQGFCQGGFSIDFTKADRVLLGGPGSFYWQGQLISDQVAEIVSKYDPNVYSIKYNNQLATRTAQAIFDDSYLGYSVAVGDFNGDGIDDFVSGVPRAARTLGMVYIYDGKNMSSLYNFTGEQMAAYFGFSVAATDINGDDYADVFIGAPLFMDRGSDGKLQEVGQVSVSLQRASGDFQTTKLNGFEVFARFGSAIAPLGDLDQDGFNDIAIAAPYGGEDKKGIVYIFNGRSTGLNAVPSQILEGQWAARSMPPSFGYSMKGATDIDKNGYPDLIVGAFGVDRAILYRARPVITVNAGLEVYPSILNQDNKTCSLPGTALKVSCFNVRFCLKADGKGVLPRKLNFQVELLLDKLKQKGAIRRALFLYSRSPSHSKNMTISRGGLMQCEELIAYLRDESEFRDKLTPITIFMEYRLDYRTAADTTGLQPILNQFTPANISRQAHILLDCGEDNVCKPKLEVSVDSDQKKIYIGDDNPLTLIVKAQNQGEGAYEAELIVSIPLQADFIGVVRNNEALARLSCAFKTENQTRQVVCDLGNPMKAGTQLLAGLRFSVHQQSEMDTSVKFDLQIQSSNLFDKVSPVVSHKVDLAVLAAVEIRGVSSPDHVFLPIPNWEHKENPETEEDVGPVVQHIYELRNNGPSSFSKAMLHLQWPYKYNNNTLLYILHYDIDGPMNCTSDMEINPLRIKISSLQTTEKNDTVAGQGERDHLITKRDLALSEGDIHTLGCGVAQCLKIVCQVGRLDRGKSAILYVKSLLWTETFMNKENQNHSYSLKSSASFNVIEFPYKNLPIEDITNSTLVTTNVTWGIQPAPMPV
Sequence (P05556 21-728 limits assumed): as the sequence (P05556 21-728 limits assumed) above
protocol: Solid Phase Receptor Assay (SPRA) for αVβ1 function
applied conditions: plate-bound human fibronectin
# maps each entry to its log10 IC50
Remember, log10 of IC50, in nM.

Reference set, count: 2
> print(dat)
                                   compound  observed.value
1  COCC1(c2cc(C(CC(=O)O)Cc3cc(OCCc4ccc5c(n4)NCCC5)n(C)n3)cc(C(C)(C)C)c2)CCOCC1 (stereo not shown)            0.78
2  CC(C)(C)c1ccc(C#N)c(C(CC(=O)O)Cc2csc(CCCc3ccc4c(n3)NCCC4)n2)c1 (stereo not shown)            0.30

Return log10 IC50 measured with Recombinant human integrin αvβ1 (Homo sapiens, UniProt P05556+P06756) given this compound: COc1ccc(C(CC(=O)O)Cc2cc(OCCc3ccc4c(n3)NCCC4)n(C)n2)cc1F (stereo not shown) 0.51

Return log10 IC50 measured with Recombinant human integrin αvβ1 (Homo sapiens, UniProt P05556+P06756) given this compound: Cn1nc(CC(CC(=O)O)c2cc(C(C)(C)C)ccc2C#N)cc1OCCc1ccc2c(n1)NCCC2 (stereo not shown) 0.70

Return log10 IC50 measured with Recombinant human integrin αvβ1 (Homo sapiens, UniProt P05556+P06756) given this compound: COc1c(C(CC(=O)O)Cc2cc(OCCc3ccc4c(n3)NCCC4)n(C)n2)cc(C(C)(C)C)cc1C(C)(C)C (stereo not shown) 2.90

Return log10 IC50 measured with Recombinant human integrin αvβ1 (Homo sapiens, UniProt P05556+P06756) given this compound: CC(C)(C)c1cc(C(CC(=O)O)Cc2csc(CCCc3ccc4c(n3)NCCC4)n2)cc(C(C)(C)C)c1 (stereo not shown) 1.04

Return log10 IC50 measured with Recombinant human integrin αvβ1 (Homo sapiens, UniProt P05556+P06756) given this compound: CC(C)(C)c1cc(C(CC(=O)O)Cc2csc(CCCc3ccc4c(n3)NCCC4)n2)cc(C(C)(C)C(F)(F)F)c1 (stereo not shown) 0.90

###

# maps each entry to its pIC50
measurement target: Recombinant human integrin αVβ5 (Homo sapiens, UniProt P06756+P18084)
Sequence (P18084 24-719 limits assumed, one chain of several): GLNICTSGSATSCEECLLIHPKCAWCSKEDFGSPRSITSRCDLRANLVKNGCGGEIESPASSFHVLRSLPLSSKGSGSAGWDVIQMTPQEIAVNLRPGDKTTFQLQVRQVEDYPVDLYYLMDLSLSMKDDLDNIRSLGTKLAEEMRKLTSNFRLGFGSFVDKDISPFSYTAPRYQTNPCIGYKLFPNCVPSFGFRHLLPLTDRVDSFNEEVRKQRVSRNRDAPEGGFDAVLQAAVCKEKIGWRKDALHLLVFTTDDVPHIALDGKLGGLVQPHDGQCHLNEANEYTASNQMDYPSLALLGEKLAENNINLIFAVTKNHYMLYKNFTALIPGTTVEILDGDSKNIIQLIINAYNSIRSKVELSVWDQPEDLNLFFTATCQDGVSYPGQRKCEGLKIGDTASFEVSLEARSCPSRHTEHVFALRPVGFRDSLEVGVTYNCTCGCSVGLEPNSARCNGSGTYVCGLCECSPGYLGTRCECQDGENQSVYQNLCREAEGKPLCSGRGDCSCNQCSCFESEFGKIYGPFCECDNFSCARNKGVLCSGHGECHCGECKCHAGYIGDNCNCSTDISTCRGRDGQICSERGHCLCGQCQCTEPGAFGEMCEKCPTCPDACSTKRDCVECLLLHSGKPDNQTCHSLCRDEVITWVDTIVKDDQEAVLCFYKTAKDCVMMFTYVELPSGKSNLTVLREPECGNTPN
protocol: Solid Phase Receptor Assay (SPRA) for αVβ5 function
applied conditions: plate-bound human vitronectin
Where a name gives a salt, the structure may show the parent alone.
On this scale, pIC50 is minus log10 of a concentration expressed in M (mol/L).

Reference set, count: 8
compound	pIC50
COc1ccc(C2CCOCC2)cc1C(CC(=O)O)Cc1csc(CCCc2ccc3c(n2)NCCC3)n1 (stereo not shown)	7.21
COc1ccc(C2=CCOCC2)cc1[C@@H](CC(=O)O)Cc1csc(CCCc2ccc3c(n2)NCCC3)n1 [Example 37B, trifluoroacetate]	7.21
COc1ccc(S(F)(F)(F)(F)F)cc1C(CC(=O)O)Cc1cc(OCCc2ccc3c(n2)NCCC3)n(C)n1 (stereo not shown)	7.02
COCC1(c2cc(C(CC(=O)O)Cc3cc(OCCc4ccc5c(n4)NCCC5)n(C)n3)cc(C(C)(C)C)c2)CCOCC1 (stereo not shown)	7.36
COc1ccc(C(C)(C)O)cc1C(CC(=O)O)Cc1cc(OCCc2ccc3c(n2)NCCC3)n(C)n1 (stereo not shown)	8.00
CC(C)(C)c1cc(C(CC(=O)O)Cc2csc(CCCc3ccc4c(n3)NCCC4)n2)cc(C(C)(C)C(F)(F)F)c1 (stereo not shown)	5.82
Cn1nc(CC(CC(=O)O)c2cc(C(C)(C)C)cc(C(C)(C)C#N)c2)cc1OCCc1ccc2c(n1)NCCC2 (stereo not shown)	7.49
O=C(O)CC(Cc1cc(OCCc2ccc3c(n2)NCCC3)[nH]n1)c1cccc(F)c1 (stereo not shown) [CC2, reference compound]	9.70

Which pIC50 value belongs to COc1ccc(C2CCOCC2)cc1C(CC(=O)O)Cc1cc(OCCc2ccc3c(n2)NCCC3)n(C)n1 (stereo not shown) ? 7.06

Which pIC50 value belongs to Cn1nc(CC(CC(=O)O)c2cc(C(C)(C)C)ccc2OC(F)(F)F)cc1OCCc1ccc2c(n1)NCCC2 (stereo not shown) ? 6.23

Which pIC50 value belongs to Cn1nc(CC(CC(=O)O)c2cc(C(C)(C)C#N)cc(C(C)(C)C#N)c2)cc1OCCc1ccc2c(n1)NCCC2 (stereo not shown) [Example 41, trifluoroacetate] ? 8.30

Which pIC50 value belongs to Cn1nc(CC(CC(=O)O)c2cc(Cl)cc(C(C)(C)C#N)c2)cc1OCCc1ccc2c(n1)NCCC2 (stereo not shown) ? 9.52
